tested on: NCI/ADR-RES ovarian; assay: NCI-60 one-dose screen, 48 h (100 = growth as untreated, 0 = no growth, -100 = all killed); settings: 10 µM unless noted
The panel holds about 83,000 compounds, 20% with a hit somewhere; the sample as a whole holds those more often.
Reported growth values for a set of compounds
outcome.measure: growth (%)

compound=CN(C)Cc1ccc(NC(=O)c2cncc(C#Cc3cnc(N)c4ncccc34)c2)cc1F measured_result=56.9
compound=Cc1ccc(Cl)cc1Nc1nc(C(F)(F)F)ccc1C(=O)N/N=C/c1cccnc1 measured_result=13.9
compound=O=C(Cn1cc(CN2CCCCCC2)nn1)Nc1ccc2c(ccn2Cc2ccccc2)c1 measured_result=102
compound="CC(C)NC1CCC(Nc2ccnc3cc(Cl)ccc23)CC1 (stereo not given)" measured_result=108
compound=COCCNC(=O)c1ccc(-c2nc3ccc4[nH]ncc4c3c3c2CCCC3)cc1 measured_result=63.9

* * *

system: MALME-3M melanoma; assay: NCI-60 one-dose screen, 48 h (100 = growth as untreated, 0 = no growth, -100 = all killed); details: 10 µM unless noted
About 83,000 compounds went through this panel and 20% of them were active in at least one assay; those are over-represented in the sample as a whole.
outcome.measure: growth (%)

molecule=C1=C(N2CCCC2)CCC1 measured_result=100
molecule=Clc1ccc(CNc2c3ccccc3nc3ccccc23)cc1 measured_result=39.6
molecule="COc1cc(NC(C)CCCNC(C)C)c2ncccc2c1OC (stereo not given)" measured_result=105
molecule="CC1Cc2c(Cl)ncnc2N(C)c2ccc(F)cc21 (stereo not given)" measured_result=91.3
molecule="Nc1ncnc2c1N=C(c1ccc3c(c1)OCO3)CC(c1cccc(Nc3ccnc4cc(Cl)ccc34)c1)N2 (stereo not given)" measured_result=97.3
molecule=CCOC(=O)c1ccc2[nH]c(O)c(C(=Nc3ccc(N(C)C(=O)CN4CCN(C)CC4)cc3)c3ccccc3)c2c1 measured_result=-88.9
molecule=CCOC(=O)Cn1c(O)c(N=Nc2ccc(S(N)(=O)=O)cc2)c2cc(Br)ccc21 measured_result=79.5
molecule=CCOC(=O)C1=C(NC)OCC1=O measured_result=113
molecule=COC(=O)c1cc(-c2ccc(S(C)(=O)=O)cc2)[nH]c1N/N=C/c1c(Cl)cccc1Cl measured_result=4.13
molecule=Cc1ccc(-c2nc3nc(-c4ccccc4)nc(N4CCNCC4)c3o2)cc1 measured_result=-80.4
molecule=CC(C)N1CCN(Cc2ccc3c(NNC(=O)c4ccccc4)nc4cc(F)ccc4n23)CC1 measured_result=25
molecule=O=[N+]([O-])c1ccc(N/N=C(/C(=N/Nc2ccc([N+](=O)[O-])cc2)c2ccccc2)c2ccccc2)cc1 measured_result=100
molecule=CCNC(=O)c1[nH]cc(-c2ccccc2)c1-c1cc(OC)c2c(c1OC)OCO2 measured_result=110
molecule=Cn1cc(-c2nonc2-c2c[nH]c3ccc(Br)cc23)c2cc(Br)ccc21 measured_result=39.9
molecule=O=C(NCCCCNC(=O)OCc1ccc2c(Cl)cc(Cl)c(O)c2n1)OCc1ccc2c(Cl)cc(Cl)c(O)c2n1 measured_result=43
molecule=CCOC(=O)c1[nH]c(=O)c2c(C)nc(-c3ccccc3)cc2c1O measured_result=136
molecule=COc1ccc(-c2csc(N(C(=O)N3CCN(c4cc5c(cc4F)c(=O)c(C(=O)O)cn5C4CC4)CC3)c3ccccc3)n2)cc1 measured_result=9.18
molecule=COCCNC(=O)c1ccc(-c2nc3ccc4[nH]ncc4c3c3c2CCCC3)cc1 measured_result=30.5
molecule=O=[N+]([O-])c1ccc(S(=O)(=O)N2CCN(C3=NS(=O)(=O)c4ccccc4N3c3ccccc3)CC2)cc1 measured_result=106
molecule=OCCNCCCOc1ccc2ncnc(Nc3ccc(Oc4cccc(C(F)(F)F)c4)c(Cl)c3)c2c1 measured_result=41.1
